System: HL-60(TB) leukemia
test: NCI-60 one-dose screen, 48 h
condition info: 10 µM unless noted
Compounds without any hit were thinned out: in the full panel of roughly 83,000, 20% have a hit. Active and inactive are the calls of the source. Rule for the calls: active = growth percent below 10; inactive = the rest.
Write down one outcome, taken from T (active), F (inactive)

Input line: Hello, I am checking results. What call was entered for CC1(C)N=C(N)N=C(N)N1c1cccc(OCCOc2cccc([N+](=O)[O-])c2)c1 ?
Output line: F

Input line: What was the test verdict on COc1ccc(/C(C)=C(\c2ccc(Cl)cc2)c2ccc(OCCCN(C)C)cc2)cc1F ?
Output line: F

Input line: // outcome(item) with item = COS(=O)(=O)CCN(CCOS(C)(=O)=O)S(C)(=O)=O
Output line: F

Input line: Answer briefly: the call reported for Cc1ccc(/C=C/c2c(C(=O)/C=C/c3ccccc3)c(C)nc3ccccc23)cc1 in this assay.
Output line: F

Input line: # lookup: test call for COc1ccc(-c2[nH]c3ccccc3c2/C=C(\C#N)S(=O)(=O)c2ccccc2)cc1
Output line: T

Input line: Hi team, can someone confirm the assay call for COc1ccc(CCN(CC(=O)N(CC(N)=O)C2CCC[C@@H]2OCc2ccccc2)C(=O)CN(C(=O)CN(CCc2ccc(Cl)cc2)C(=O)CN(C(=O)CN(C)Cc2ccccc2F)[C@H](C)C2CCCCC2)[C@H](C)C2CCCCC2)cc1OC (some centres undefined) ?
Output line: T

Input line: Outcome logged for COc1cc(/C=C/c2ccnc3ccccc23)cc(OC)c1OC in this assay:
Output line: F

Input line: Which outcome was assigned to CCCCCOC(=O)c1ccccc1O in this test?
Output line: F

Input line: Look up the recorded call for CC[C@H](CO)Nc1nc(NCc2ccccc2)n2ncc(C(C)C)c2n1 in this test.
Output line: T

Hello, the source for this data is PubChem BioAssay (NCI), in case you need it.
